B1: TPR 5TU (parent)
chain: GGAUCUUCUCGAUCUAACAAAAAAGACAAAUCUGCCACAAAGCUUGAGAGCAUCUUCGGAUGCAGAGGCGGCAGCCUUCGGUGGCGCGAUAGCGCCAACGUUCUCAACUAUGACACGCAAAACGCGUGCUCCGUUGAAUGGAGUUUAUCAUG

variants of: B1; assay: polymerase ribozyme fitness, log enrichment relative to wild type (log ratio); higher = more active; in vitro selection for triplet polymerase activity
Fewer inactive variants are shown than the library holds.
polymerase ribozyme fitness (log ratio): recorded values

[
  {
    "MUTATION": "C5G C10A G11A A30U A49C C93U G136A",
    "polymerase ribozyme fitness (log ratio)": "≤ -4.2"
  },
  {
    "MUTATION": "C5A G11C C32G G92U C99A C125G G136U G141U",
    "polymerase ribozyme fitness (log ratio)": "≤ -4.2"
  },
  {
    "MUTATION": "U44A C51U C76U A106U A110G",
    "polymerase ribozyme fitness (log ratio)": "≤ -4.2"
  },
  {
    "MUTATION": "G68A C87G U104G",
    "polymerase ribozyme fitness (log ratio)": "≤ -4.2"
  },
  {
    "MUTATION": "U7A A21C U53G U56A G58C A60U C75A",
    "polymerase ribozyme fitness (log ratio)": "≤ -4.2"
  },
  {
    "MUTATION": "C54U U144A",
    "polymerase ribozyme fitness (log ratio)": -0.258
  },
  {
    "MUTATION": "G58C C72A A110C A147G A150C",
    "polymerase ribozyme fitness (log ratio)": "≤ -4.2"
  },
  {
    "MUTATION": "C8G A41U A49C G62A C79U C85U C96U C114G A115G",
    "polymerase ribozyme fitness (log ratio)": "≤ -4.2"
  },
  {
    "MUTATION": "A47U U77C",
    "polymerase ribozyme fitness (log ratio)": -4.09
  },
  {
    "MUTATION": "A30U U45A G94U C131G",
    "polymerase ribozyme fitness (log ratio)": "≤ -4.2"
  },
  {
    "MUTATION": "G94A A97U C125G",
    "polymerase ribozyme fitness (log ratio)": -2.14
  },
  {
    "MUTATION": "G59U G67A G92U",
    "polymerase ribozyme fitness (log ratio)": -3.83
  },
  {
    "MUTATION": "C87U C131A G140A",
    "polymerase ribozyme fitness (log ratio)": -3.61
  },
  {
    "MUTATION": "U7C C38U C87A A122U",
    "polymerase ribozyme fitness (log ratio)": "≤ -4.2"
  },
  {
    "MUTATION": "U13C A21G U31C G42A A52C C95A C129G",
    "polymerase ribozyme fitness (log ratio)": "≤ -4.2"
  },
  {
    "MUTATION": "G128A G133U",
    "polymerase ribozyme fitness (log ratio)": -4
  },
  {
    "MUTATION": "A64C",
    "polymerase ribozyme fitness (log ratio)": "≤ -4.2"
  },
  {
    "MUTATION": "C54U A91C G92U C105U G133U",
    "polymerase ribozyme fitness (log ratio)": "≤ -4.2"
  },
  {
    "MUTATION": "U56A G100U",
    "polymerase ribozyme fitness (log ratio)": -4.09
  },
  {
    "MUTATION": "A49C C57U G74U U90A C93G C95U C103G A138C",
    "polymerase ribozyme fitness (log ratio)": "≤ -4.2"
  },
  {
    "MUTATION": "C38U C54A C57G G143A",
    "polymerase ribozyme fitness (log ratio)": -4.08
  },
  {
    "MUTATION": "G126U C149U",
    "polymerase ribozyme fitness (log ratio)": -1.96
  },
  {
    "MUTATION": "C85U C87G G140C",
    "polymerase ribozyme fitness (log ratio)": "≤ -4.2"
  },
  {
    "MUTATION": "C5G A23C A66G C69U A91G C105G A120U",
    "polymerase ribozyme fitness (log ratio)": "≤ -4.2"
  },
  {
    "MUTATION": "G25U G84A",
    "polymerase ribozyme fitness (log ratio)": -3.07
  },
  {
    "MUTATION": "C8G G62C G70U C96A C103U",
    "polymerase ribozyme fitness (log ratio)": "≤ -4.2"
  },
  {
    "MUTATION": "A24C U53A G81C C95U G141A",
    "polymerase ribozyme fitness (log ratio)": "≤ -4.2"
  },
  {
    "MUTATION": "A52G G83A",
    "polymerase ribozyme fitness (log ratio)": -0.0714
  },
  {
    "MUTATION": "G83U A121U",
    "polymerase ribozyme fitness (log ratio)": -0.341
  },
  {
    "MUTATION": "A19C C32U C69A U77C C103A G143A U145A",
    "polymerase ribozyme fitness (log ratio)": "≤ -4.2"
  },
  {
    "MUTATION": "A47U G83U A122U",
    "polymerase ribozyme fitness (log ratio)": -0.574
  },
  {
    "MUTATION": "C43U C72U G92U",
    "polymerase ribozyme fitness (log ratio)": "≤ -4.2"
  },
  {
    "MUTATION": "A73G",
    "polymerase ribozyme fitness (log ratio)": 0.127
  },
  {
    "MUTATION": "U53C A97U C114G U145A",
    "polymerase ribozyme fitness (log ratio)": -3.74
  },
  {
    "MUTATION": "C36U C87U G143C",
    "polymerase ribozyme fitness (log ratio)": -3.81
  },
  {
    "MUTATION": "C35A A60U U77A U82A G83C A97U G126A",
    "polymerase ribozyme fitness (log ratio)": -3.93
  },
  {
    "MUTATION": "U13C U148C",
    "polymerase ribozyme fitness (log ratio)": -2.48
  },
  {
    "MUTATION": "A52C U53G C72U G83A G124A",
    "polymerase ribozyme fitness (log ratio)": "≤ -4.2"
  },
  {
    "MUTATION": "C14G U15A C18U G25U C27G G62A C85G A138C",
    "polymerase ribozyme fitness (log ratio)": "≤ -4.2"
  },
  {
    "MUTATION": "G25C C105U U144C",
    "polymerase ribozyme fitness (log ratio)": -2.67
  },
  {
    "MUTATION": "C76A C87G C93U",
    "polymerase ribozyme fitness (log ratio)": "≤ -4.2"
  },
  {
    "MUTATION": "G94U G100U",
    "polymerase ribozyme fitness (log ratio)": -3.85
  },
  {
    "MUTATION": "A49G A66G G71C C87G C95G A120G G124C A142U",
    "polymerase ribozyme fitness (log ratio)": "≤ -4.2"
  },
  {
    "MUTATION": "G25A C27G A30C C32G G68A C87A A107U",
    "polymerase ribozyme fitness (log ratio)": "≤ -4.2"
  },
  {
    "MUTATION": "A47U C57U",
    "polymerase ribozyme fitness (log ratio)": 0.131
  },
  {
    "MUTATION": "C96U C114U A150U",
    "polymerase ribozyme fitness (log ratio)": -3.94
  },
  {
    "MUTATION": "G84A A89U G136U",
    "polymerase ribozyme fitness (log ratio)": -2.91
  },
  {
    "MUTATION": "A17C C18G A26U A41C U45G A49U U55A G62A G92U C108U C118U",
    "polymerase ribozyme fitness (log ratio)": "≤ -4.2"
  },
  {
    "MUTATION": "U15C G74C G94C",
    "polymerase ribozyme fitness (log ratio)": -4.1
  },
  {
    "MUTATION": "U31A A49C C99G C108G",
    "polymerase ribozyme fitness (log ratio)": "≤ -4.2"
  },
  {
    "MUTATION": "U4C U56G C63U C93G",
    "polymerase ribozyme fitness (log ratio)": -3.11
  },
  {
    "MUTATION": "C54U C95U A98G A142U",
    "polymerase ribozyme fitness (log ratio)": -1.61
  },
  {
    "MUTATION": "A3C G11A A19C C54U A122U U135A G143A",
    "polymerase ribozyme fitness (log ratio)": -3.73
  },
  {
    "MUTATION": "G58A C76U U101G",
    "polymerase ribozyme fitness (log ratio)": 0.481
  },
  {
    "MUTATION": "U13A A39U U45A G59C C72U G94C U101A A142C",
    "polymerase ribozyme fitness (log ratio)": "≤ -4.2"
  },
  {
    "MUTATION": "C18G C36A C96U A138U",
    "polymerase ribozyme fitness (log ratio)": -4.03
  },
  {
    "MUTATION": "C75U A91G A147C",
    "polymerase ribozyme fitness (log ratio)": -3.68
  },
  {
    "MUTATION": "U9A G25C C38U G71U U135C A147G",
    "polymerase ribozyme fitness (log ratio)": "≤ -4.2"
  },
  {
    "MUTATION": "C57A G59C A60G",
    "polymerase ribozyme fitness (log ratio)": 0.42
  },
  {
    "MUTATION": "U90A C95U",
    "polymerase ribozyme fitness (log ratio)": "≤ -4.2"
  },
  {
    "MUTATION": "U7A A29G G67A C69U G80C C103G U104C C105U G136A G140U",
    "polymerase ribozyme fitness (log ratio)": "≤ -4.2"
  },
  {
    "MUTATION": "G83C C132G",
    "polymerase ribozyme fitness (log ratio)": "≤ -4.2"
  },
  {
    "MUTATION": "A21C A49U C54U C85G G117A G124U",
    "polymerase ribozyme fitness (log ratio)": -3.06
  },
  {
    "MUTATION": "A23C A30U G50A C54A C93G C95U G124A",
    "polymerase ribozyme fitness (log ratio)": "≤ -4.2"
  },
  {
    "MUTATION": "C96G C116G",
    "polymerase ribozyme fitness (log ratio)": 0.127
  },
  {
    "MUTATION": "C69G A121U",
    "polymerase ribozyme fitness (log ratio)": -2.04
  },
  {
    "MUTATION": "U13G A30C G50C U82A A110C G136U",
    "polymerase ribozyme fitness (log ratio)": "≤ -4.2"
  },
  {
    "MUTATION": "A47U G70U A122G",
    "polymerase ribozyme fitness (log ratio)": -3.45
  },
  {
    "MUTATION": "U53G G68A",
    "polymerase ribozyme fitness (log ratio)": "≤ -4.2"
  },
  {
    "MUTATION": "C69U C76G U130A",
    "polymerase ribozyme fitness (log ratio)": "≤ -4.2"
  },
  {
    "MUTATION": "G68U C129U",
    "polymerase ribozyme fitness (log ratio)": "≤ -4.2"
  },
  {
    "MUTATION": "A20U G50C G58U C79G G84U U90G A107G C108G",
    "polymerase ribozyme fitness (log ratio)": "≤ -4.2"
  },
  {
    "MUTATION": "C14G A39U C57G",
    "polymerase ribozyme fitness (log ratio)": -4.06
  },
  {
    "MUTATION": "G74A A115C",
    "polymerase ribozyme fitness (log ratio)": -3.73
  },
  {
    "MUTATION": "A3U C27G C38U G48U G58U C79G G92A C105U G117U G143U",
    "polymerase ribozyme fitness (log ratio)": "≤ -4.2"
  },
  {
    "MUTATION": "C69A C85A G124U",
    "polymerase ribozyme fitness (log ratio)": -2.55
  },
  {
    "MUTATION": "U7G G34U A60U C93U A107U",
    "polymerase ribozyme fitness (log ratio)": "≤ -4.2"
  },
  {
    "MUTATION": "U53G U61A",
    "polymerase ribozyme fitness (log ratio)": -3.21
  },
  {
    "MUTATION": "C5U U9C A29C C93U C103U G126U",
    "polymerase ribozyme fitness (log ratio)": "≤ -4.2"
  },
  {
    "MUTATION": "C18U G86A G140A",
    "polymerase ribozyme fitness (log ratio)": "≤ -4.2"
  }
]
